# credit: patent US20120045438A1

Consider the following binders and their measured % of Lc16Hc7 readings.
molecular target: T1, human IL-13 R130Q variant (R110Q of the mature chain) (human, UniProt P35225 35-146, Biotinylated on amines (NHS-LC-biotin, 4:1) in ELISA, panning and competition assays. The letters are unchanged.); experiment: single-point (10 nM) phage Fab ELISA on biotinylated IL-13 R130Q
T1 construct: R130Q counts from Met 1 of the signal peptide, R110Q on the mature chain; Bought from Peprotech; also called IL-13 R110Q; b-R130Q
T1 sequence (P35225 35-146 limits assumed, stated change not applied): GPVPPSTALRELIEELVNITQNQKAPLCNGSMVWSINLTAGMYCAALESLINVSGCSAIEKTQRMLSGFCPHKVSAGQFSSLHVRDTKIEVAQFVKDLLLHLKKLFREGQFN
Respond with the bare value in %.

binder: Phage # 87 Fab (IL-13-142 library) (Fab, V domains shown, Fab on phage pIX) VH: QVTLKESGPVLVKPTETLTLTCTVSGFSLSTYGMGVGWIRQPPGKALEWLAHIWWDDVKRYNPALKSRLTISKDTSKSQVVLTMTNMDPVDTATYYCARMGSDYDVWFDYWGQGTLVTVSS VL: DIQMTQSPSTLSASVGDRVTITCRASKSISKYLAWYQQKPGKAPKLLIYSGSTLQSGVPSRFSGSGSGTEFTLTISSLQPDDFATYYCQQHSLGPYTFGGGTKVEIK
data value: 125

Please turn your attention to the following entry.
Exam item: Name the reported % of Lc16Hc7 value associated with the binder Phage # 10 Fab (IL-13-142 library) (Fab, V domains shown, Fab on phage pIX) VH: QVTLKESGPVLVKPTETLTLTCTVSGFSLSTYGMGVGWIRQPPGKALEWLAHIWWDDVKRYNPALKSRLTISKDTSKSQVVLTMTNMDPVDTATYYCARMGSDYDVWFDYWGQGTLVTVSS VL: DIQMTQSPSTLSASVGDRVTITCRASKSISKYLAWYQQKPGKAPKLLIYSGSTLQSGVPSRFSGSGSGTEFTLTISSLQPDDFATYYCQQHLWGPYTFGGGTKVEIK
Marked response: 318
